Where do these numbers come from? They come from the supplement of paper PMC10567573.

Provide the recorded protein stability index for the entries that follow.
B1: BTBD1 (parent)
chain: TSAEIELPDVEPAAFLALLRFLYS

Variants of: B1
protocol: protein stability index of a GFP-peptide fusion (GPS, HEK-293T) (PSI 1-6); higher = more stable;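 further: lentivirally expressed fusions sorted by FACS into six bins by GFP to DsRed ratio, PSI derived from sequencing read proportions per bin multiplied by bin number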
test-settings: c terminus: a fixed tail appended
Just the number.

Exercise: Can you share its protein stability index? I mean this variant: L22R
Solution: 1.26

Exercise: Same lookup for S2D , please.
Solution: 1.61

Exercise: Same lookup for F21M , please.
Solution: 1.94

Exercise: Same lookup for F15D , please.
Solution: 2.73

Exercise: Same lookup for P12A , please.
Solution: 1.29

Exercise: Same lookup for F21A , please.
Solution: 2.21

Exercise: Same lookup for E4V , please.
Solution: 1.55

Exercise: Same lookup for L18A , please.
Solution: 1.08

Exercise: Same lookup for E11N , please.
Solution: 2.15

Exercise: Same lookup for L19D , please.
Solution: 3.54

Exercise: Same lookup for P12Y , please.
Solution: 2.22

Exercise: Same lookup for E6M , please.
Solution: 2.22

Exercise: Same lookup for A13Y , please.
Solution: 1.59

Exercise: Same lookup for Y23D , please.
Solution: 1.49

Exercise: Same lookup for F21P , please.
Solution: 1.8

Exercise: Same lookup for A14V , please.
Solution: 2.28

Exercise: Same lookup for D9T , please.
Solution: 2.55

Exercise: Same lookup for F21T , please.
Solution: 1.89

Exercise: Same lookup for S2Y , please.
Solution: 2.28

Exercise: Same lookup for F21R , please.
Solution: 2.25

Exercise: Same lookup for S24P , please.
Solution: 2.61

Exercise: Same lookup for E4H , please.
Solution: 1.56

Exercise: Same lookup for A3D , please.
Solution: 2.12

Exercise: Same lookup for E6P , please.
Solution: 2.31

Exercise: Same lookup for V10S , please.
Solution: 2.78

Exercise: Same lookup for E11C , please.
Solution: 1.1

Exercise: Same lookup for L7W , please.
Solution: 2.02

Exercise: Same lookup for I5C , please.
Solution: 1.77

Exercise: Same lookup for L16Q , please.
Solution: 2.31

Exercise: Same lookup for D9F , please.
Solution: 2.23

Exercise: Same lookup for L19M , please.
Solution: 2.05

Exercise: Same lookup for R20F , please.
Solution: 2

Exercise: Same lookup for R20H , please.
Solution: 1.79

Exercise: Same lookup for P12Q , please.
Solution: 1.19

Exercise: Same lookup for P8G , please.
Solution: 1.96

Exercise: Same lookup for V10N , please.
Solution: 2.08

Exercise: Same lookup for E6C , please.
Solution: 2.3

Exercise: Same lookup for A14I , please.
Solution: 1.72

Exercise: Same lookup for E11I , please.
Solution: 2.38

Exercise: Same lookup for S24C , please.
Solution: 2.12

Exercise: Same lookup for T1P , please.
Solution: 1.88

Exercise: Same lookup for I5S , please.
Solution: 1.94

Exercise: Same lookup for E6R , please.
Solution: 1.84

Exercise: Same lookup for L19T , please.
Solution: 1.76

Exercise: Same lookup for T1E , please.
Solution: 1.66

Exercise: Same lookup for P12G , please.
Solution: 1.85

Exercise: Same lookup for Y23P , please.
Solution: 1.75

Exercise: Same lookup for F21E , please.
Solution: 1.82

Exercise: Same lookup for L22C , please.
Solution: 1.64

Exercise: Same lookup for F15R , please.
Solution: 2.2

Exercise: Same lookup for A3V , please.
Solution: 2.27

Exercise: Same lookup for E4G , please.
Solution: 2.07

Exercise: Same lookup for I5F , please.
Solution: 1.78

Exercise: Same lookup for F15W , please.
Solution: 2.89

Exercise: Same lookup for L7I , please.
Solution: 1.93

Exercise: Same lookup for P8M , please.
Solution: 1.9

Exercise: Same lookup for V10P , please.
Solution: 2.32

Exercise: Same lookup for V10Y , please.
Solution: 1.78

Exercise: Same lookup for L18H , please.
Solution: 2.55
